B1: INTS4 (parent)
chain: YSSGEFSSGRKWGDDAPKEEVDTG

Variants of: B1
Protocol text: protein stability index of a GFP-peptide fusion (GPS, HEK-293T) (PSI 1-6); higher = more stable;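 note: lentivirally expressed fusions sorted by FACS into six bins by GFP to DsRed ratio, PSI derived from sequencing read proportions per bin multiplied by bin number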
Setup conditions: c terminus: a fixed tail appended
Decision: protein stability index >= 3 yields Condition met, all other cases yield Condition not met.

Mutations | Qualitative label
R10V | Condition not met
E20I | Condition not met
S3R | Condition met
E19K | Condition not met
V21M | Condition not met
P17G | Condition not met
D15A | Condition not met
Y1C | Condition met
R10F | Condition not met
D15M | Condition not met
E5Q | Condition not met
D14F | Condition not met
S7V | Condition not met
E5C | Condition not met
S8G | Condition met
E19D | Condition not met
T23H | Condition not met
